- Test system: TO-N3-2 (biotin conjugate)
- method.summary: pull-down binding Z-score (relative to library population); higher = stronger binding
- measurement.context: RNA library: Library-2
parameter.measured: pull-down binding Z-score

item_sequence="GCCGCGGAAGAAGGGGAAGCGC [hsa-mir-6720]" parameter_measured="pull-down binding Z-score" obs_value=1.86
item_sequence="GCGCGGCCAGAAACUGGCGGCGC [mismatch-GG]" parameter_measured="pull-down binding Z-score" obs_value=-0.598
item_sequence="CCAGGCCACAUAAUGAGCCAAA [hsa-mir-6771]" parameter_measured="pull-down binding Z-score" obs_value=0.607
item_sequence="GUGGGUUGUGAGGACUGAGGCCAGACCCAC [hsa-mir-181d]" parameter_measured="pull-down binding Z-score" obs_value=0.803
item_sequence=GUGUUAUAACAC parameter_measured="pull-down binding Z-score" obs_value=-1.12
item_sequence="GGCGUAAGUCUGAUACUUACCUG [U1snRNP5ss-10]" parameter_measured="pull-down binding Z-score" obs_value=1.08
item_sequence="GUGUCUGGAGACGCCAGGCAGC [hsa-mir-4323]" parameter_measured="pull-down binding Z-score" obs_value=1.13
item_sequence="CAGGCUGGUCUCAAACUCCUGGUCUG [hsa-mir-1285-1]" parameter_measured="pull-down binding Z-score" obs_value=-0.123
item_sequence="CUUACUGCCCGGGCCGCCCUCAGUAA [hsa-mir-212]" parameter_measured="pull-down binding Z-score" obs_value=1.45
item_sequence="AAGCUCUUGCAGUAGGUUU [hsa-mir-1206]" parameter_measured="pull-down binding Z-score" obs_value=-0.369
item_sequence="CCUUUCCCCUCAGACCAAGG [hsa-mir-3131]" parameter_measured="pull-down binding Z-score" obs_value=-0.176
item_sequence="UGUAUAUAGCAUAUGUGUAUACAUACACACACACACACACACACACACA [hsa-mir-8485]" parameter_measured="pull-down binding Z-score" obs_value=-0.143
item_sequence="ACACUUCCUAUAUGUAUCCACAUAUAUAUAGU [hsa-mir-568]" parameter_measured="pull-down binding Z-score" obs_value=-0.936
item_sequence="GUCUUACACCGUGCGGCACAGGCACUAGUACUGAUGUCGUAUACAGGGCUUUUGAC [DMSMaPseq_invitro_SARS-CoV-2_Motif_242]" parameter_measured="pull-down binding Z-score" obs_value=0.217
item_sequence="AGCACUUUCUGUUUUGUGAAAGAAAAGAAAGUGCU [hsa-mir-516b-1]" parameter_measured="pull-down binding Z-score" obs_value=-1.2
item_sequence="GGGCGUGGUGGACAGCGAUGCAUCCC [hsa-mir-6803]" parameter_measured="pull-down binding Z-score" obs_value=1.19
item_sequence="CUACUCAAGGCUAG [hsa-mir-4266]" parameter_measured="pull-down binding Z-score" obs_value=-0.0352
item_sequence="GAGUUUGGGCAGCUCAGGCAAACC [hsa-mir-181c]" parameter_measured="pull-down binding Z-score" obs_value=1.12
item_sequence=CAGUUGAAACAUCAAAUUCGUUUGAUGUACUG parameter_measured="pull-down binding Z-score" obs_value=-1.22
item_sequence=CAAGAGAAGUGGGUUUUGUCGUGCCUGGUUUGCCUGGCACGAUAUUACGCACAACUAAUG parameter_measured="pull-down binding Z-score" obs_value=-0.297
item_sequence=AUAAAGAAAUGUAUCUAAAGUUGCGUAGUGAUGUGCUAUUACCUCUUACGCAAUAUAAUAGAUACUUAGCUCUUUAU parameter_measured="pull-down binding Z-score" obs_value=-0.61
item_sequence="GCCAUGGAAAGUAAUGGC [hsa-mir-548ax]" parameter_measured="pull-down binding Z-score" obs_value=0.319
item_sequence=GUUGACAGGACACGAGUAACUCGUCUAUCUUCUGCAGGCUGCUUACGGUUUCGUCCGUGUUGCAGCCGAUCAUCAGC parameter_measured="pull-down binding Z-score" obs_value=1.31
item_sequence="AACCAUACAGGUGUUGUUGGAGAAGGUU [DMSMaPseq_invitro_SARS-CoV-2_Motif_31]" parameter_measured="pull-down binding Z-score" obs_value=-0.444
item_sequence="GCACUCUGUAGUUUGGGUACACAGUGC [hsa-mir-5011]" parameter_measured="pull-down binding Z-score" obs_value=-0.478
item_sequence="CAUACAUUUUGAAUAUGUAUG [hsa-mir-299]" parameter_measured="pull-down binding Z-score" obs_value=-1.29
item_sequence="GUCUUUCCAGGGGC [IAV_invivo_NP_5_Motif_23+IAV_invivo_NP_5_Motif_23]" parameter_measured="pull-down binding Z-score" obs_value=-0.0606
item_sequence="CUUUCUGUUGUCUGAAAGAAAAGAAAG [hsa-mir-520c_520b_519c_519b]" parameter_measured="pull-down binding Z-score" obs_value=0.38
item_sequence="CUGGGUUCUUAGAGGCCUAAUCCUCUACAAACUCAGUUU [hsa-mir-4305]" parameter_measured="pull-down binding Z-score" obs_value=0.546
item_sequence="CAGGCAAUAACAGUUACACCGGAAGCCAAUAUGGAUCAAGAAUCCUUUGGUGGUGCAUCGUGUUGUCUG [SHAPE_invivo_SARS-CoV-2_Motif_250]" parameter_measured="pull-down binding Z-score" obs_value=0.779
item_sequence="UUAAUGAGGCCAUAGA [hsa-mir-6863]" parameter_measured="pull-down binding Z-score" obs_value=-0.294
item_sequence=ACCUAAAUAGAGGU parameter_measured="pull-down binding Z-score" obs_value=-1.63
item_sequence=CAGUUUACUCACACCUUUUGCUCGUUGCUGCUG parameter_measured="pull-down binding Z-score" obs_value=0.0199
item_sequence=ACGACGACUACUAGCGUGCCUUUGUAAGCACAAGCUGAUGAGUACGAACUUAUGUACUCAUUCGUUUCGGAAGAGACAGGUACGUUAAUAGUUAAUAGCGU parameter_measured="pull-down binding Z-score" obs_value=-0.217
item_sequence=GCUCUACAAGAUGCUUAUUACAGAGC parameter_measured="pull-down binding Z-score" obs_value=-0.0957
item_sequence=AACUUCUUAAGAGUGCUUAUGAAAAUUUUAAUCAGCACGAAGUU parameter_measured="pull-down binding Z-score" obs_value=-0.771
item_sequence=UGCUUUCGUGGUA parameter_measured="pull-down binding Z-score" obs_value=-0.505
item_sequence="GCUCUGGGGAUUUGGUCUCACAGC [hsa-mir-3940]" parameter_measured="pull-down binding Z-score" obs_value=-0.339
item_sequence="GGGAAGGCGAAAGACC [IAV_invivo_PA_3_Motif_21+IAV_invivo_PA_3_Motif_21]" parameter_measured="pull-down binding Z-score" obs_value=1.12
item_sequence="UGUUGCUUAUGAAAGUUUACGCCCUGACACACGUUAUGUGCUCAUGGAUGGCUCUAUUAUUCAAUUUCCUAACACCUACCUUGAAGGUUCUGUUAGAGUGGUAACA [SHAPE_invitro_SARS-CoV-2_Multi_27_ComplexLevel_1]" parameter_measured="pull-down binding Z-score" obs_value=0.0671
item_sequence=AUGCCAACUAUUUUCUUUGCUGGCAU parameter_measured="pull-down binding Z-score" obs_value=-1.13
